These measurements were taken from patent US12495798B2.

Test system: wheat
ASSAY_INFO: Phytotoxicity test for field crops (soil treatment test)
Assay type: in vivo
Design: key: 0 (no harm); 9 (complete withered)
ASSAY_SETUP: 50 g ai/ha; Wheat (20 days after treatment)
MEASUREMENT_KIND: Soil treatment phytotoxicity, Wheat
Answer as a number with no unit attached.

Below are worked cases with known answers.
Cn1nc(COCc2nc(C(F)(F)F)ccc2C(=O)Nc2nnnn2C)nc1C#N 0
CON(Cc1nnn(C)n1)Cc1nc(C(F)(F)F)ccc1C(=O)Nc1nnnn1C 0
Cn1cnc(COCc2nc(C(F)F)ccc2C(=O)Nc2nnnn2C)n1 0
Cn1nc(COCc2nc(C(F)(F)F)ccc2C(=O)Nc2nnnn2C)nc1Br 0
CON(Cc1nnn(C)n1)c1nc(C(F)(F)F)ccc1C(=O)Nc1nnnn1C 1
Cn1nnc(COCc2nc(C(F)(F)Cl)ccc2C(=O)Nc2nnnn2C)n1 0
Cn1nnc(CSCc2nc(C(F)F)ccc2C(=O)Nc2nnnn2C)n1 0

Next:
Incoming: Which value of Soil treatment phytotoxicity, Wheat has been reported for `Cn1nnc(COCc2nc(C(F)(F)F)ccc2C(=O)N(c2nnnn2C)S(C)(=O)=O)n1` in the records?
Outgoing: 1
